Source of measurements: patent US20100152206A1

Molecular target: Eg5 motor domain construct Eg5-367H (Homo sapiens)
Construct: the Eg5 motor domain construct Eg5-367H; His tag (read from the 'H' in the construct name; not spelled out for this construct)
Sequence (P52732 18-359 limits assumed): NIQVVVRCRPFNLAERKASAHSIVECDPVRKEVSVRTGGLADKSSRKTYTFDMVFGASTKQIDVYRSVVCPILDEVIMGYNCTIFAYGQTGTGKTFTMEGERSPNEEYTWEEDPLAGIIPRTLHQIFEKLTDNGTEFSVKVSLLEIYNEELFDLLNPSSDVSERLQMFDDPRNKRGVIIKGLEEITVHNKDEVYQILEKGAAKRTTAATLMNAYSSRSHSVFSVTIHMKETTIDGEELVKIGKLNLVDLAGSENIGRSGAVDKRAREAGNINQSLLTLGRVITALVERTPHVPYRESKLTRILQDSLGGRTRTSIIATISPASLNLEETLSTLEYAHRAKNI
Experiment: Activity of Eg5 inhibitors in pure protein assay (microtubule-stimulated ATP hydrolysis, malachite green phosphate detection)
Settings: microtubule-stimulated ATP hydrolysis by Eg5-367H, 25 degrees, 2 hours
METRIC: pIC50
Answers are plain numbers, as −log10 of the molar value.

Recorded results for 3 molecules are shown here.
INSERT INTO assay_data (molecule, result_value) VALUES
  ('O=C1NCCC2=C1C(c1cccc(O)c1)NC(=S)N2 (stereo not drawn) [Entry 1]', 5.82),
  ('CCOC(=O)C1=C(CO)NC(=S)NC1c1cccc(O)c1 (stereo not drawn) [Entry 7]', 4.52),
  ('O=C1NCC2=C1C(c1cccc(O)c1)NC(=S)N2 (stereo not drawn) [Entry 9]', 4.92);

Tell me measured pIC50 for O=C1OCCC2=C1C(c1cccc(O)c1)NC(=S)N2 (stereo not drawn) [Entry 5] please. 6.30
